test system: M. tuberculosis pNIP::InhA(S94A); assay type: cell-based, Mycobacterium tuberculosis

molecule | targetOrSystem | MIC
COc1cccc(C(=O)/C=C/c2ccc3nccnc3c2)c1 [N23] | M. tuberculosis pNIP::InhA(S94A) | 2.5 µg/mL
COc1ccc(OC)c(C(=O)/C=C/c2ccc3nccnc3c2)c1 [N9] | M. tuberculosis pNIP::InhA(S94A) | 3.13 µg/mL
COc1cc(C(=O)/C=C/c2ccc3nccnc3c2)cc(OC)c1OC [N15] | M. tuberculosis pNIP::InhA(S94A) | 3.13 µg/mL
NNC(=O)c1ccncc1 [INH, isoniazid, reference compound] | M. tuberculosis pNIP::InhA(S94A) | 12.5 µg/mL
